For each record, write down the corresponding inhibition in vivo at 100 mg/kg.
test system: ovalbumen-induced systemic edema; experiment: Ovalbumen-induced systemic edema method; type: in vivo; settings: Rattus norvegicus, po; rats, 100 mg/kg orally 1 hour before and with ovalbumen; 3 hours after ovalbumen; read-out: Percent anti-inflammatory activity after 3 hours
Answers are plain numbers, in %.

compound	inhibition in vivo at 100 mg/kg / %
COC(=O)c1ccccc1CN1Cc2ccsc2C(c2ccccc2)C1 (stereo not shown)	52

Look up inhibition in vivo at 100 mg/kg for the entries below, preserving their order.
1. c1ccc(CCN2Cc3ccsc3C(c3ccccc3)C2)cc1 (stereo not shown)
2. CN1Cc2sccc2C(c2ccccc2)C1 (stereo not shown)
3. CN1Cc2ccsc2C(c2ccccc2)C1 (stereo not shown)
4. c1ccc(C2CNCc3sccc32)cc1 (stereo not shown)
5. CC1C(c2ccccc2)c2sccc2CN1Cc1ccccc1Cl (stereo not shown)
6. CC1NCc2ccsc2C1c1ccccc1 (stereo not shown)

output:
61
51
55
59
54
50
